# EXPERIMENTAL SYSTEM: FAK (Homo sapiens)
# Construct: endogenous in cells; host or cells: U87MG glioblastoma cells (ATCC HTB-14)
# Sequence (Q05397 whole entry): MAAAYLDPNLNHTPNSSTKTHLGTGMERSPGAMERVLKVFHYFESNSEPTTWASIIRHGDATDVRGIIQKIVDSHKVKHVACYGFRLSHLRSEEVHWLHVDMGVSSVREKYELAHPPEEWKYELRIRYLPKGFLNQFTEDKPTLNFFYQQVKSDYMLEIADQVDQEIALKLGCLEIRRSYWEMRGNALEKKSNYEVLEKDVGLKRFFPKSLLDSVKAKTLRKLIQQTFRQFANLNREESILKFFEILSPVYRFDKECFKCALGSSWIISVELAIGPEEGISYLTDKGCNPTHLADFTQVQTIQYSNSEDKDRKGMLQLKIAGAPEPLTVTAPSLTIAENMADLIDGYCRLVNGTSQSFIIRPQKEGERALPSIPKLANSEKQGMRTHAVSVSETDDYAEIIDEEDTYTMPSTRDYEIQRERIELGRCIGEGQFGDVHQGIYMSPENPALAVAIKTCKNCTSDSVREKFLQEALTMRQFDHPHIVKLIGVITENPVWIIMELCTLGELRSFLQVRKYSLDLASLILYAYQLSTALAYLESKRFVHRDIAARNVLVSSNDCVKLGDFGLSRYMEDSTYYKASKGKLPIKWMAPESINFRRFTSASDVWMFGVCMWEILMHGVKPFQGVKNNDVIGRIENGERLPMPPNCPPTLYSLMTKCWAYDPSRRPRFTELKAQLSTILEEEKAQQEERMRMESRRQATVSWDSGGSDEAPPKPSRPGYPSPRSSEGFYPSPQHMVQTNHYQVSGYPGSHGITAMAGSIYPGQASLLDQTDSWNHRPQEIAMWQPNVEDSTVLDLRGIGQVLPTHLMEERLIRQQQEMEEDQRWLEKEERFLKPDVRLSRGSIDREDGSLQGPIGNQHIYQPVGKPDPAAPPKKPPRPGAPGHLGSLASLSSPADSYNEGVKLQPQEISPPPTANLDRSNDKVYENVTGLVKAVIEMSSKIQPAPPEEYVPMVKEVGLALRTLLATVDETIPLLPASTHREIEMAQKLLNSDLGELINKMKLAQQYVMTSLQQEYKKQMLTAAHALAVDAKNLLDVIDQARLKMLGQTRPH
# RUN DESCRIPTION: Cell-based capture ELISA for inhibition of FAK autophosphorylation [pY397] in U87MG cells
# EXPERIMENTAL PARAMETERS: no plasma present, mean IC50, read-out: FAK Activity Mechanistic (U87MG) NP
pIC50: −log10 of the molar value.
Quick list: pIC50 per entry.
OBSERVABLE: pIC50

# COMPOUND, RESULT VALUE
rows = [
    ("CCOP1(=O)Cc2ccc(c(OC)c2)Nc2ncc(C(F)(F)F)c(n2)Nc2ccc(nc2C(=O)NC)-c2cnn(c2C)CCCO1 (single isomer, unassigned) [Example 35A]", "> 6.40"),
    ("CCOP1(=O)Cc2ccc(c(OC)c2)Nc2ncc(C(F)(F)F)c(n2)Nc2ccc(nc2C(=O)NC)-c2cc(C(=O)NC)n(c2)CCCO1 (racemic)", "> 6.40"),
    ("CCOP1(=O)Cc2ccc(c(F)c2)Nc2ncc(C(F)(F)F)c(n2)Nc2ccc(nc2C(=O)NC)-c2cnn(c2)CCCO1 (racemic)", "5.40 to 6.40"),
    ("CCOP1(=O)Cc2ccc(c(OC)c2)Nc2ncc(C(F)(F)F)c(n2)Nc2ccc(c3c2C(=O)N(C)C3)-c2cnn(c2)C[C@H](O)CO1 (mixture of isomers)", "> 6.40"),
    ("CCOP1(=O)Cc2ccc(c(OC)c2)Nc2ncc(C(F)(F)F)c(n2)Nc2cc(F)c(c3c2C(=O)N(C)C3)-c2cnn(c2)CCCO1 (racemic)", "> 6.40"),
    ("CCOP1(=O)Cc2ccc(c(OC)c2)Nc2ncc(C(F)(F)F)c(n2)Nc2ccc(c(F)c2C(=O)NC)-c2cnn(c2)CCCO1 (racemic)", "> 6.40"),
    ("CNC(=O)c1nc2ccc1Nc1nc(ncc1C(F)(F)F)Nc1ccc(cc1OC)CP(C)(=O)OCCCn1cc-2cn1 (single isomer, unassigned) [Example 61A]", "> 6.40"),
    ("CCOP1(=O)Cc2ccc(c(OC)c2)Nc2ncc(C(F)(F)F)c(n2)Nc2ccc(cc2C(=O)NC)-c2cnn(c2)CCCO1 (racemic)", "> 6.40"),
    ("CCOP1(=O)Cc2cc(OC)c(cc2Cl)Nc2ncc(C(F)(F)F)c(n2)Nc2ccc(nc2C(=O)NC)-c2cnn(c2)CC2(COC2)CO1 (racemic) [Example 57]", "> 6.40"),
    ("CCOP1(=O)Cc2ccc(c(OC)c2)Nc2ncc(C(F)(F)F)c(n2)Nc2ccc(nc2C(=O)NC)-c2cnn(c2Cl)CCCO1 (racemic)", "> 6.40"),
    ("CCOP1(=O)Cc2ccc(c(OC)c2)Nc2ncc(C(F)(F)F)c(n2)Nc2ccc(nc2C(=O)NC)-c2cnn(c2)CC(F)(F)CO1 (single isomer, unassigned) [Example 59B]", "5.40 to 6.40"),
    ("CCOP1(=O)Cc2ccc(c(OC)c2)Nc2ncc(C(F)(F)F)c(n2)Nc2ccc(cc2C(=O)NOC)-c2cnn(c2)CCCO1 (racemic)", "> 6.40"),
]
